Source: paper PMC9865144

Molecular target: T1, ASAP1-SH3 (residue 1087–1147), Q9QWY8
T1 chain: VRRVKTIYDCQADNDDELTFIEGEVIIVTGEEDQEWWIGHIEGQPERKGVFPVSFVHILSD
Experiment: ITC
Conditions: chain shown with the change
pKd: −log10 of the molar value.
endpoint.name: pKd

(A) EPPPRPPRSCSALAR [MICAL1-PRM, Q8TDZ2 K832R]
(B) EPPPPPPRSCSALAR [MICAL1-PRM, Q8TDZ2 K832P]
Lowest pKd? choose A or B Mark your answer with the label of the selected entry.
B
(B: 4.77, A: 6.46)
